system: CP215; experiment: qHTS profiling for inhibitors of Plasmodium falciparum proliferation (AID 504749); note: nearly all actives have a fitted effect of over 60% in size; conditions: P. falciparum in erythrocytes, SYBR Green DNA, 72 h; series mostly up to 28.7 µM
Results filed as inconclusive are left out. Activity calls are given as the source filed them. Calls come from the whole dose curve; as a rule, active = well fitted inhibition curve with a large enough effect; inconclusive = small, poorly fitted or top-dose-only effect; inactive = flat fitted curve, though single readings scatter.
Labels: yes (1) for active, no (0) for inactive

[
  {
    "Molecule": "CC(=O)OC1C[C@H](O[C@@H]2C(O)C[C@H](O[C@@H]3C(O)C[C@@H](OC4CC[C@]5(C)C(CCC6C5CC(O)[C@@]5(C)C(C7=CC(=O)OC7)CC[C@@]65O)C4)OC3C)OC2C)O[C@H](C)[C@H]1O[C@H]1OC(CO)C(O)C(O)C1O (stereo not given in full)",
    "Class label": "no (0)"
  },
  {
    "Molecule": "COc1ccc2c(c1OC)CN1CCc3cc4c(cc3[C@H]1C2)OCO4",
    "Class label": "yes (1)"
  },
  {
    "Molecule": "[Hg+][c]1ccccc1",
    "Class label": "yes (1)"
  },
  {
    "Molecule": "C[C@]12CC[C@H](OS(=O)(=O)O)CC1=CCC1C2CC[C@]2(C)C(=O)CC[C@@H]12 (stereo not given in full)",
    "Class label": "no (0)"
  },
  {
    "Molecule": "CNC(C)[C@@H](O)c1ccccc1 (stereo not given in full)",
    "Class label": "no (0)"
  },
  {
    "Molecule": "CC1=C2[C@@H]3OC(=O)[C@@H](C)[C@@H]3CC[C@]2(C)C=CC1=O",
    "Class label": "no (0)"
  },
  {
    "Molecule": "COc1cc(N)c(Cl)cc1C(=O)N[C@@H]1CN2CCC1CC2",
    "Class label": "no (0)"
  },
  {
    "Molecule": "CNC(C)[C@@H](O)c1ccc(O)cc1 (stereo not given in full)",
    "Class label": "no (0)"
  },
  {
    "Molecule": "C[N+]1(C)[C@@H]2CC[C@H]1CC(OC(=O)[C@@H](CO)c1ccccc1)C2 (stereo not given in full)",
    "Class label": "no (0)"
  },
  {
    "Molecule": "CC(C)(O)C1C2OC(=O)C1[C@]1(O)C[C@H]3O[C@]34C(=O)O[C@H]2[C@]14C (stereo not given in full) (tested in a mixture with another compound)",
    "Class label": "no (0)"
  },
  {
    "Molecule": "C[C@H](N)[C@@H](O)c1ccccc1",
    "Class label": "no (0)"
  },
  {
    "Molecule": "CNc1ccc(C(=O)CC(O)CCC(C)C2OC(=O)CC(O)CC(=O)CC(O)CC(O)CC(O)CC(O)CC3(O)CC(O)C(C(=O)OC)C(CC(O[C@@H]4OC(C)C(O)C(N)C4O)/C=C/C=C/C=C/C=C/C=C/C=C/C=C/C2C)O3)cc1 (stereo not given in full)",
    "Class label": "no (0)"
  },
  {
    "Molecule": "CC(C)N(CC[C@@](C(N)=O)(c1ccccc1)c1ccccn1)C(C)C",
    "Class label": "no (0)"
  },
  {
    "Molecule": "C=CC1CN2CCC1CC2C(OC(=O)OCC)c1ccnc2ccc(OC)cc12 (stereo not given)",
    "Class label": "yes (1)"
  },
  {
    "Molecule": "CCCC[N+]1(C)C2CC(OC(=O)C(CO)c3ccccc3)CC1C1OC12 (stereo not given)",
    "Class label": "no (0)"
  },
  {
    "Molecule": "Oc1ccc2c3c1O[C@H]1[C@@H](O)CC[C@@]4(O)C(C2)N(CC2CCC2)CCC314 (stereo not given in full)",
    "Class label": "no (0)"
  },
  {
    "Molecule": "CNC[C@H](O)c1ccc(O)cc1",
    "Class label": "no (0)"
  },
  {
    "Molecule": "CC([C@H](O)c1ccccc1)N(C)C (stereo not given in full)",
    "Class label": "no (0)"
  },
  {
    "Molecule": "CC[C@@]1(c2ccc(N)cc2)CCC(=O)NC1=O",
    "Class label": "no (0)"
  },
  {
    "Molecule": "CCNC[C@H](O)c1cccc(O)c1",
    "Class label": "no (0)"
  }
]
